Listing of entries alongside the reported Dissolution rate constants at pH 2.
protocol-details: Measurement of the dissolution rate (USP Wood Apparatus, rotary disk method)
Type: physicochemical
applied-conditions: pH 2 (0.01 M HCl), 37° C., rotary disk

[
  {
    "molecule": "CN(C)CC(c1ccc(O)cc1)C1(O)CCCCC1 (centres unmarked) [Base, Desvenlafaxine]",
    "unit-text": "mg/cm^2/min",
    "Dissolution rate constants at pH 2": 0.6
  },
  {
    "molecule": "CN(C)CC(c1ccc(O)cc1)C1(O)CCCCC1 (centres unmarked) [Hemioxalate, anhydrous, Anhydrous Desvenlafaxine Hemioxalate]",
    "unit-text": "mg/cm^2/min",
    "Dissolution rate constants at pH 2": 6.6
  },
  {
    "molecule": "CN(C)CC(c1ccc(O)cc1)C1(O)CCCCC1.O=C(O)/C=C/C(=O)O (centres unmarked) [Hydrogen fumarate hydrate, Desvenlafaxine hydrogen fumarate]",
    "unit-text": "mg/cm^2/min",
    "Dissolution rate constants at pH 2": 0.8
  },
  {
    "molecule": "CN(C)CC(c1ccc(O)cc1)C1(O)CCCCC1.O=C(O)C(=O)O (centres unmarked) [Hydrogen oxalate hydrate, Desvenlafaxine Hydrogen Oxalate Hydrate]",
    "unit-text": "mg/cm^2/min",
    "Dissolution rate constants at pH 2": 7.1
  },
  {
    "molecule": "CN(C)CC(c1ccc(O)cc1)C1(O)CCCCC1.O=C(O)CCC(=O)O (centres unmarked) [Hydrogen succinate hydrate, Desvenlafaxine hydrogen succinate]",
    "unit-text": "mg/cm^2/min",
    "Dissolution rate constants at pH 2": 3.1
  }
]

###

protocol-details: Measurement of equilibrium solubility
applied-conditions: phosphate buffer, 25 °C, pH 6.8, aqueous buffer, thermodynamic from solid, Equilibrium solubility at pH 6.8, phosphate buffer of pH 6.8, 25° C., 24-hour stirring
experimental-endpoint: solubility thermodynamic at 24 h (mg/mL)

[
  {
    "molecule": "CN(C)CC(c1ccc(O)cc1)C1(O)CCCCC1.O=C(O)C(=O)O (stereo not drawn) [Hydrogen oxalate hydrate, Desvenlafaxine Hydrogen Oxalate Hydrate]",
    "recorded-number": 63
  },
  {
    "molecule": "CN(C)CC(c1ccc(O)cc1)C1(O)CCCCC1.O=C(O)CCC(=O)O (stereo not drawn) [Hydrogen succinate hydrate, Desvenlafaxine hydrogen succinate]",
    "recorded-number": 58
  },
  {
    "molecule": "CN(C)CC(c1ccc(O)cc1)C1(O)CCCCC1.O=C(O)/C=C/C(=O)O (stereo not drawn) [Hydrogen fumarate hydrate, Desvenlafaxine hydrogen fumarate]",
    "recorded-number": 8
  }
]
